- System under test: KLKB1 (Homo sapiens (Human), UniProt P03952)
- Sequence (P03952 391-638 limits assumed): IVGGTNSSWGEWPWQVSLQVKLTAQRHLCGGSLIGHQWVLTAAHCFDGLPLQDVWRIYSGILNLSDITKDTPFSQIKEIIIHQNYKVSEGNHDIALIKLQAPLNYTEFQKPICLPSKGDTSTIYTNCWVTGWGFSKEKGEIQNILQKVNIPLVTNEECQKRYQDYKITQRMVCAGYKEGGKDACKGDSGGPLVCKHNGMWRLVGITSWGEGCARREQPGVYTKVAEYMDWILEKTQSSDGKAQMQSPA
- Sequence (P03952 20-390 partner limits assumed): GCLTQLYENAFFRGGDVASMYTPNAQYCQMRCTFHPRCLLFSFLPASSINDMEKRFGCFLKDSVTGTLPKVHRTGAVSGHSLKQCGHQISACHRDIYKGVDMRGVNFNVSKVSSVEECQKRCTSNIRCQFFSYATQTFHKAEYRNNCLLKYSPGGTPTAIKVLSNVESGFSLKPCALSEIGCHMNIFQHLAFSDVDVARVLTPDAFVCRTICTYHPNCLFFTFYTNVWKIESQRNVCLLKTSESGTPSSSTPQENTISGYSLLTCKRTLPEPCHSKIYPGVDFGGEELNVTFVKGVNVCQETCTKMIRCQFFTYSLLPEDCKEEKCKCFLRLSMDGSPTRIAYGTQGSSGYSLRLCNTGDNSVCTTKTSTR
- Assay method text: Inhibition of KLKB1 using an endpoint assay (fluorogenic substrate H-Pro-Phe-Arg-AMC)
- Format: biochemical
- Test settings: endpoint assay, 1 h at room temperature, 0.10 μM H-Pro-Phe-Arg-AMC; read-out: IC50
So I've got a bunch of compounds here, and I need their IC50 values.
Give bare numbers, in nM.

A selection of reference data follows.
| Compound | System under test | Measurement name | Unit | Value |
| --- | --- | --- | --- | --- |
| Cc1nc(N2CC3C(C2)C3(C)C)ccc1Cn1cc(C(=O)N[C@@H]2CCc3c2ccnc3N)cn1 (stereo partly drawn) | KLKB1 (Homo sapiens (Human), UniProt P03952) | IC50 | nM | 9.9 |
| Cc1nc(N2CC3CC3C2)ncc1Cn1cc(C(=O)N[C@@H]2CCc3c2ccnc3N)nn1 (stereo partly drawn) | KLKB1 (Homo sapiens (Human), UniProt P03952) | IC50 | nM | 5.3 |
| Cc1nc(N2CCC3(CC3)C2)ccc1Cn1cc(C(=O)N[C@@H]2CCc3c2ccnc3N)cn1 | KLKB1 (Homo sapiens (Human), UniProt P03952) | IC50 | nM | 2 |
| Cc1nc(N2C[C@@H]3[C@H](C)[C@@H]3C2)ccc1Cn1cc(C(=O)N[C@@H]2CCc3c2ccnc3N)cn1 | KLKB1 (Homo sapiens (Human), UniProt P03952) | IC50 | nM | 0.6 |
| Cc1cc2c(c(N)n1)CC[C@H]2NC(=O)c1cn(Cc2cnc(N3CC4CC4C3)nc2C)nn1 (stereo partly drawn) | KLKB1 (Homo sapiens (Human), UniProt P03952) | IC50 | nM | 1.2 |

Please state IC50 for every compound in the list that follows.
1. Cc1nc(N2CC3(CCC3)C2)ccc1Cn1cc(C(=O)N[C@@H]2CCc3c2ccnc3N)cn1
2. COc1nn(Cc2ccc(N3CC4CC4C3)nc2C)cc1C(=O)N[C@@H]1CCc2c1ccnc2N (stereo partly drawn)

Result string:
[2.1, 1.1]

Please state IC50 for every compound in the list that follows.
1. Cc1nc(N2CC3CC3C2)ccc1Cn1cc(C(=O)N[C@@H]2CCc3c2ccnc3N)c(C(F)(F)F)n1 (stereo partly drawn)
2. Cc1nc(N2CC3C(C2)C3(F)F)ccc1Cn1cc(C(=O)N[C@@H]2CCc3c2ccnc3N)nn1 (stereo partly drawn)
3. Cc1cc2c(c(N)n1)CC[C@H]2NC(=O)c1cn(Cc2ccc(N3CC4CC4C3)nc2C)nc1C (stereo partly drawn)
4. Cc1nc(N2CC3CC3C2)ccc1Cn1cc(C(=O)N[C@@H]2CCc3c2ccnc3N)c(C)n1 (stereo partly drawn)
5. Cc1nc(N2C[C@@H]3[C@H](C#N)[C@@H]3C2)ccc1Cn1cc(C(=O)N[C@@H]2CCc3c2ccnc3N)cn1

Result string:
[0.8, 5.5, 0.5, 0.7, 0.5]

Please state IC50 for every compound in the list that follows.
1. Cc1nc(N2CC3CC3C2)ccc1Cn1cc(C(=O)N[C@@H]2CCc3c2ccnc3N)nn1 (stereo partly drawn)
2. Cc1nc(N2C[C@@H]3[C@H](CO)[C@@H]3C2)ccc1Cn1cc(C(=O)N[C@@H]2CCc3c2ccnc3N)cn1
3. Cc1cc2c(c(N)n1)CC[C@H]2NC(=O)c1cnn(Cc2ccc(N3CC4C(C3)C4(F)F)nc2C)c1 (stereo partly drawn)

Result string:
1. 0.8
2. 1.9
3. 0.4

The reported numbers originate from patent US10501440B2.
